Reference source for all entries: paper PMC11018795

target: NAMPT (Homo sapiens, UniProt P43490)
Sequence (P43490 whole entry, species assumed): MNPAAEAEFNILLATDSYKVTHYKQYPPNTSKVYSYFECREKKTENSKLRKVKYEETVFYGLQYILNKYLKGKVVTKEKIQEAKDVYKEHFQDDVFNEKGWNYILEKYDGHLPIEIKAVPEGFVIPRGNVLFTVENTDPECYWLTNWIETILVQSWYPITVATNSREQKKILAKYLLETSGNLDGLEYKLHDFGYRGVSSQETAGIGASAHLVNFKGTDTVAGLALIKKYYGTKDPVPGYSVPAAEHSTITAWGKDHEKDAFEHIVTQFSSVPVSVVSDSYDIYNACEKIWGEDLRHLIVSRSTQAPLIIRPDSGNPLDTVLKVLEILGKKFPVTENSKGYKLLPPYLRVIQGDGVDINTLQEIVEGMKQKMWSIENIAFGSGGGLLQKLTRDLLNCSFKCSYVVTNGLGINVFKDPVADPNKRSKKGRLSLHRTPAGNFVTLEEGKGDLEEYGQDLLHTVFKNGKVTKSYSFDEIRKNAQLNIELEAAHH
attribute_measured: IC50 (nM)

                           substance_smiles  meas_value
0  CCN(CC)CCCOc1cccc(-c2cccc3c2CCN3C(=O)c2ncc(CNC(=NC#N)Nc3ccncc3)s2)c1          28

---

assay_overview: In vitro metabolic stability in human liver microsome
Format: in vitro ADME
test_parameters: liver microsomes; human liver microsome; read-out: CLint, in vitro (intrinsic clearance)
attribute_measured: microsomal CLint (µL/min/mg)

>>> df
                           substance_smiles  meas_value
0  CCN(CC)CCCOc1cccc(-c2cccc3c2CCN3C(=O)c2ncc(CNC(=NC#N)Nc3ccncc3)s2)c1          35
